The reported measurements were obtained from patent US20250236608A1.

target: pEGFR (Tyr1068) in PC-9 cells (Ex19Del) (Homo sapiens (Human), UniProt P00533, DEL746-750); assay: PC-9 pEGFR AlphaLISA assay; conditions: 4 hours incubation, p-EGFR (Tyr1068) AlphaLISA, read-out: Ext pEGFR_PC-9 Ex19Del IC50
Sequence (P00533 other isoform, or with tags, fused parts or gaps del 746-750): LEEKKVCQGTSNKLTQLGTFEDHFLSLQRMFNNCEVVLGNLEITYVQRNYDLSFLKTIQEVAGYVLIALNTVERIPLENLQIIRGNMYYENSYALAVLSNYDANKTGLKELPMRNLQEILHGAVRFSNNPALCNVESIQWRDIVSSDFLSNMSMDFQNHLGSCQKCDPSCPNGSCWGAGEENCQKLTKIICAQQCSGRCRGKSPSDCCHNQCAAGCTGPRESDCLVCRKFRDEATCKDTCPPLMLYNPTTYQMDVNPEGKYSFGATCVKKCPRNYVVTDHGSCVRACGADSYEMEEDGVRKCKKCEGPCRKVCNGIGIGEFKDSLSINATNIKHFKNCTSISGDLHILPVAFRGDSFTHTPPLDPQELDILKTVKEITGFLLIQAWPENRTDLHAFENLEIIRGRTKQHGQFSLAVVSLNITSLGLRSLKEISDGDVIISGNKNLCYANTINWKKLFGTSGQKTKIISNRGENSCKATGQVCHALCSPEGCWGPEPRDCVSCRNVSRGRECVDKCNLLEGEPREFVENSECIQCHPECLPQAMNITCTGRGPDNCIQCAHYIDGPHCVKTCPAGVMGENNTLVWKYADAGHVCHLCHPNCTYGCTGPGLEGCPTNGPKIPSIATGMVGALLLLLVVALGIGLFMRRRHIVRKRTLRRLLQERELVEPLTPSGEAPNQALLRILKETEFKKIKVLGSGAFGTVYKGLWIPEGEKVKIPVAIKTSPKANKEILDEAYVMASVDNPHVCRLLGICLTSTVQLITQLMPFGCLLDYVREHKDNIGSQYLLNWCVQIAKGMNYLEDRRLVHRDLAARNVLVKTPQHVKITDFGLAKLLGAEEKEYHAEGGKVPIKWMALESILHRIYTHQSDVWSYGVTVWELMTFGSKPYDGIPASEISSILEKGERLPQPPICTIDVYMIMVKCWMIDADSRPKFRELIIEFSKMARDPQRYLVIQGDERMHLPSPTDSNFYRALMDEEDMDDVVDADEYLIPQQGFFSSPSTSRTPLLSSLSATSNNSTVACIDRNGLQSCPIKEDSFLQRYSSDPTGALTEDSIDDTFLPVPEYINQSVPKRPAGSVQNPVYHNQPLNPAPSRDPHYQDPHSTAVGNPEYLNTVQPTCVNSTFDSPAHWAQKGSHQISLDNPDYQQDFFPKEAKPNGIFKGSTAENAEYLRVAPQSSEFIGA
value_kind: IC50 (nM)

                                   compound                       experimental_target  value_kind  display_unit  experimental_value
0  COc1cc2ncnc(-c3cn(C)nc3-c3ccccc3)c2cc1NC(=O)c1cnc(C)c(F)c1  pEGFR (Tyr1068) in PC-9 cells (Ex19Del) (Homo sapiens (Human), UniProt P00533, DEL746-750)        IC50            nM                 1.5
1  COc1cc2ncnc(-c3cn(C)nc3-c3ccccc3)c2cc1-c1ccc2c(c1)CN(C)C2=O  pEGFR (Tyr1068) in PC-9 cells (Ex19Del) (Homo sapiens (Human), UniProt P00533, DEL746-750)        IC50            nM                 3.6

1: CCn1cc(-c2ncnc3cc(OC)c(NC(=O)C4(C(F)(F)F)CC4)nc23)c(-c2ccccc2)n1
2: COc1cc2ncnc(-c3cn(C4CC4)nc3-c3ccccc3)c2nc1NC(=O)[C@]12C[C@H]1CN(C)C2 (single isomer, unassigned)
IN: Between the entries labeled 1 and 2 , whose measured IC50 is lower? Output the label that corresponds to your choice.
OUT: 1

###

target: pEGFR (Tyr1068) in PC-9 cells (Ex19Del) (Homo sapiens (Human), UniProt P00533, DEL746-750); experiment: PC-9 pEGFR AlphaLISA assay; details: 4 hours incubation, p-EGFR (Tyr1068) AlphaLISA, read-out: Ext pEGFR_PC-9 Ex19Del IC50
pIC50: −log10 of the molar value. Structures can show the parent of a compound that is named as a salt.
value_kind: pIC50

Use these answered entries as a reference point.
                                   compound  value_kind  experimental_value
0  COc1cc2ncnc(-c3cn(C)nc3-c3ccccc3)c2cc1NC(=O)C12CC(N(C)C)(C1)C2 [Example 341, trifluoroacetate]       pIC50                8.08
1  COc1cc2ncnc(-c3cn(C)nc3-c3ccccc3)c2cc1N1CC[C@H](F)[C@@H](O)C1 (single isomer, unassigned) [Example 172]       pIC50                7.93
2  CCOc1cc2ncnc(-c3cn(C)nc3-c3ccccc3)c2cc1OC(=O)N1CCN(C)C[C@@H]1C [Example 96]       pIC50                8.72

a: COc1cc2ncnc(-c3cn(CCO)nc3-c3ccccc3)c2nc1NC(=O)c1cnn(C(F)(F)F)c1 [Example 415]
b: CCOc1cc2ncnc(-c3cn(C)nc3-c3ccccc3F)c2nc1NC(=O)[C@@]12C[C@@H]1CN(C)C2 (single isomer, unassigned) [Example 400]
c: Cn1cc(-c2ccc3c(-c4c[nH]nc4-c4ccccc4)ncnc3c2)cn1 [Example 441]
IN: List items by pIC50 in falling order. Note for the reader: the ranking is given by listing the labels in the order requested.
OUT: c, b, a
(c: 9.40, b: 8.70, a: 8.11)
